test system: PC-3 prostate; experiment: NCI tumour cell line growth inhibition, 48 h
MEASUREMENT_KIND: TGI (µM)

[[record]]
molecule = "c1ccc2[nH]c(-c3ccc(NN=Nc4ccncc4)cc3)nc2c1"
target_under_test = "PC-3 prostate"
unit = "µM"
limit_operator = ">"
numeric_result = 100

[[record]]
molecule = "O=C(/C=C/c1cccnc1)NCCCCC1CCCN(C(=O)c2ccccc2)C1 (stereo not given)"
target_under_test = "PC-3 prostate"
unit = "µM"
limit_operator = ">"
numeric_result = 100

[[record]]
molecule = "Nc1c(Br)cc(Br)c2c1[nH]c(=O)c1ccccc12"
target_under_test = "PC-3 prostate"
unit = "µM"
limit_operator = ">"
numeric_result = 100

[[record]]
molecule = "O=C(CC(C(=O)c1cccs1)c1ccsc1)c1cccs1 (stereo not given)"
target_under_test = "PC-3 prostate"
unit = "µM"
limit_operator = ">"
numeric_result = 100

[[record]]
molecule = "O=c1nc2n(-c3ccc(Cl)cc3)c3ccc([N+](=O)[O-])cc3cc-2c(=O)[nH]1"
target_under_test = "PC-3 prostate"
unit = "µM"
limit_operator = "="
numeric_result = 78.5

[[record]]
molecule = "COc1ccc2c(=O)c3ccoc3n(CC=C(C)C)c2c1"
target_under_test = "PC-3 prostate"
unit = "µM"
limit_operator = ">"
numeric_result = 100

[[record]]
molecule = "C=C1C(=O)O[C@H]2[C@H]1CC/C(Cn1cc(-c3cc(C(F)(F)F)cc(C(F)(F)F)c3)nn1)=C\\CC[C@@]1(C)O[C@@H]21"
target_under_test = "PC-3 prostate"
unit = "µM"
limit_operator = "="
numeric_result = 2.33

[[record]]
molecule = "Cc1ccc(-n2c3c(c4c(CN(C)C)c(O)ccc42)CCc2ccccc2C3=O)cc1"
target_under_test = "PC-3 prostate"
unit = "µM"
limit_operator = "="
numeric_result = 38.4

[[record]]
molecule = "COC(=O)C1(c2cc3ccccc3n2S(=O)(=O)c2ccccc2)CC2C=CC1NC2 (stereo not given)"
target_under_test = "PC-3 prostate"
unit = "µM"
limit_operator = "="
numeric_result = 3.05

[[record]]
molecule = "C/C(=N\\Nc1cc(C)c2cc(C)ccc2n1)c1ccccn1"
target_under_test = "PC-3 prostate"
unit = "µM"
limit_operator = "="
numeric_result = 2.32

